meta.source: ChEMBL document CHEMBL5335791

Test system: Trypanosoma cruzi
assay notes: Antitrypanosomal activity against Trypanosoma cruzi Y strain trypomastigotes
Type: functional, organism-based
pEC50: −log10 of the molar value.
property label: pEC50

IVERMECTIN: 4.90

====

assay notes: Cytotoxicity against BALB/c mouse macrophage assessed as cell viability measured after 48 hrs by MTT assay
Format: toxicity, cell-based
experimental conditions: BALB/c, mouse macrophages
property label: CC50 at 48 h (nM)

C[C@@H]1[C@H](O)[C@@H](C)/C=C/C=C/C=C/C=C/C=C/C=C/C=C/[C@H](O[C@@H]2O[C@H](C)[C@@H](O)[C@H](N)[C@@H]2O)C[C@@H]2O[C@](O)(C[C@@H](O)C[C@@H](O)[C@H](O)CC[C@@H](O)C[C@@H](O)CC(=O)O[C@H]1C)C[C@H](O)[C@H]2C(=O)O [AMPHOTERICIN B]: 1060
